Molecular target: T1, DHT03_3arm_A21/B21/C82 chain C
T1 construct: also called chain C DHR82 fusion; chain C of C3-DHT03-01-DHR82 and C4-DHT03-01-DHR82
T1 chain: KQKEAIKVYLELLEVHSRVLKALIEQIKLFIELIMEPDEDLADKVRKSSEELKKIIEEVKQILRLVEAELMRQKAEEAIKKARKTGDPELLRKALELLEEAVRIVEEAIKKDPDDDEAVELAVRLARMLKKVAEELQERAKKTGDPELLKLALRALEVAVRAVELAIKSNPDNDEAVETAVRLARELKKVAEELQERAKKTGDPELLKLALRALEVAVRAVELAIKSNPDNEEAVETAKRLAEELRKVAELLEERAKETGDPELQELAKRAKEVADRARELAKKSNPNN
Assay: three components purified separately, mixed equimolar, heat annealed, SEC, negative stain EM

binder	binding result
C4-DHT03-01 chain A (designed binder, four copies in the A4B4C4 ring; also called C4-DHT03-01-DHR82 chain A) MGNTHFIVVHGGEEARQLAETAVREISKKEGTEVRFEKKDGLLSIEVKNLSEELQRLIQELLQLLVRLAALLEAVRAVEEAIKRNPDNDEAVETAVRLARELKKVAELLQELAKKAGVPAILRGALLALLVAARAVALAALANSKNDEAREALKRLAEELKKVAKELKERAKKTKDSELERLALAAELMALAAEIVAQLANTELAREALELATEAIKASDDEALRVVKLALRIVQQLPDTELARLALELAKKAVEMTAQEVLEIARAALKAAQAFPNTELAELMLRLAEVAARVMKELERNDEEIKKSDELDDESLLEDIVELLKEIIKLWKILVEVSDVMLKLIS	binds
